Tested system: UniProtKB P48426
Sequence (P48426 1-406): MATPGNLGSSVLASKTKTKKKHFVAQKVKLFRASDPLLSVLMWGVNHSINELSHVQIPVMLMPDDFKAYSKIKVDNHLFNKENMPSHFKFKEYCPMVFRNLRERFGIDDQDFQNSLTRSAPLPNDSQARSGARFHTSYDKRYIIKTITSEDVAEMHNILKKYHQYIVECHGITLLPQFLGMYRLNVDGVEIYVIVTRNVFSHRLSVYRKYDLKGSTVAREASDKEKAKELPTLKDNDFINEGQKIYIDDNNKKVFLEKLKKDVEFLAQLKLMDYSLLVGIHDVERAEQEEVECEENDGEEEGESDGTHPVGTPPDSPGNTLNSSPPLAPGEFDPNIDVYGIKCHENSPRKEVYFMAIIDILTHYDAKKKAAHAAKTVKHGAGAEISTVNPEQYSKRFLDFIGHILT
Procedure text: Kinase Assay PIP4K2 A (PIP4KtypeIIA inhibition assay)
Assay type: biochemical
Set-up: made in house; host or cells: E. coli
Condition details: compounds listed under IC50 bin headings
Kindly state IC50 for each of the entries shown.

Form field IC50, entry CC1Oc2cc(N3CCCC3=O)ccc2-c2cnc(Nc3cnc4c(c3)N3C(=O)CC[C@H]3CO4)cc21 (stereo partly shown) : ≤ 1 nM

Form field IC50, entry CC1Oc2cc(N3CCCC3=O)ccc2-c2cnc(Nc3cncc(OC(F)F)c3)cc21 (stereo not shown) : 1 to 10 nM

Form field IC50, entry CC1Oc2cc(N3CCCC3=O)ccc2-c2cnc(Nc3cccnn3)cc21 (stereo not shown) : 1 to 10 nM

Form field IC50, entry CC1Oc2cc(N3CCCC3=O)ccc2-c2cnc(Nc3cnc4c(c3)N(C(=O)C3CC3)CCO4)cc21 (stereo not shown) : ≤ 1 nM

Form field IC50, entry `O=C1CCCN1c1ccc2c(c1)OCc1c(-c3ccncc3)cncc1-2` : 100 to 1000 nM

Form field IC50, entry `O=C1CCCN1c1ccc2c(c1)OC1(CCC1)c1cc(Nc3cnc4c(c3)N3C(=O)CC[C@H]3CO4)ncc1-2` : ≤ 1 nM

Form field IC50, entry CC1Oc2cc(N3CCCC3=O)ccc2-c2cnc(Nc3cnc4c(c3)N(C(=O)C(C)(C)C)CCO4)cc21 (stereo not shown) : ≤ 1 nM

###

pIC50: −log10 of the molar value.
Endpoint name: pIC50

Lab entry: PIP4K2B (Homo sapiens) assay, molecule CC1Oc2cc(N3CCCC3=O)ccc2-c2cnc(Nc3cncc(OC(F)F)c3)cc21 (centres unmarked) , pIC50 = < 6.00

Lab entry: PIP4K2B (Homo sapiens) assay, molecule CC1Oc2cc(N3CCCC3=O)ccc2-c2cnc(Nc3cncc(NC(=O)c4ccc5ncoc5c4)c3)cc21 (centres unmarked) , pIC50 = 8.00 to 9.00

Lab entry: PIP4K2B (Homo sapiens) assay, molecule `COCCC(=O)N1CCN(c2cncc(Nc3cc4c(cn3)-c3ccc(N5CCCC5=O)cc3OC4(C)C)c2)CC1` , pIC50 = 7.00 to 8.00

Lab entry: PIP4K2B (Homo sapiens) assay, molecule CC1Oc2cc(N3CCCC3=O)ccc2-c2cnc(Nc3cncc(NC(=O)NCc4ccccc4)c3)cc21 (centres unmarked) , pIC50 = 7.00 to 8.00

Lab entry: PIP4K2B (Homo sapiens) assay, molecule CC1Oc2cc(N3CCCC3=O)c(F)cc2-c2cnc(Nc3cnc4c(c3)N3C(=O)C5(CC5)C[C@H]3CO4)cc21 (some centres unmarked) , pIC50 = 8.00 to 9.00

Lab entry: PIP4K2B (Homo sapiens) assay, molecule CC1Oc2cc(N3CCCC3=O)ccc2-c2cnc(Nc3cncc(N4CCN(C)S4(=O)=O)c3)cc21 (centres unmarked) , pIC50 = 6.00 to 7.00

Lab entry: PIP4K2B (Homo sapiens) assay, molecule CC1Oc2cc(N3CCCC3=O)ccc2-c2cnc(Nc3cncc(NC(=O)c4ccc(F)cc4)c3)cc21 (centres unmarked) , pIC50 = 7.00 to 8.00

Lab entry: PIP4K2B (Homo sapiens) assay, molecule CC1Oc2cc(N3CCCC3=O)ccc2-c2cnc(Nc3cnc4c(c3)NCCO4)cc21 (centres unmarked) , pIC50 = 7.00 to 8.00
